System: U2OS
assay.details: Multiplex assay against U2OS
Assay type: toxicity, cell-based
test.settings: human, 12 h, 1 µM, compound concentration 1 uM, replicate 2
Property: Population Fragmented Nuclei (%); scope: individual molecules

| molecule | readout.units | Population Fragmented Nuclei (%) |
| --- | --- | --- |
| CN(C)CCCc1cc(C(=O)Nc2ccc(-c3ccncc3)cc2)ccc1O.Cl.Cl | % | 10 |
| N[C@@]1(C(=O)O)CO[C@H]2[C@H](C(=O)O)[C@H]21 | % | 17 |
| CCNC1(C(N)=O)CCN(c2ncnc3c2nc(-c2ccccc2Cl)n3-c2ccc(Cl)cc2)CC1 | % | 17 |
| COc1cc(NC(=O)CCN2CCC(OC(=O)Nc3ccccc3-c3ccccc3)CC2)c(Cl)cc1CNC[C@H](O)c1ccc(O)c2[nH]c(=O)ccc12 | % | 14 |
| Cc1ccc(-c2ccc(F)cc2COc2ccc(CCC(=O)O)cc2)cc1 | % | 17 |
| CNC[C@H](O)c1ccc(O)c(O)c1 [EPINEPHRINE] | % | 17 |
| O=C1COc2nccc(-c3ccccc3F)c2CN1Cc1cc(C(F)(F)F)cc(C(F)(F)F)c1 | % | 23 |
| COc1c(C)cc(NC(=O)c2nn(Cc3ccc(F)cc3)c3c2CN(C(=O)c2ccc[nH]2)C[C@]3(C)C(N)=O)cc1C | % | 21 |

###

# maps each entry to its Population Normal (%)
Tested on: U2OS
assay.details: Multiplex assay against U2OS
Type: toxicity, cell-based
test.settings: human, 48 h, 1 µM, compound concentration 1 uM, replicate 2

| compound | readout.units | Population Normal (%) |
| --- | --- | --- |
| COc1cc(NC(=O)CCN2CCC(OC(=O)Nc3ccccc3-c3ccccc3)CC2)c(Cl)cc1CNC[C@H](O)c1ccc(O)c2[nH]c(=O)ccc12 | % | 95 |
| O=C(NCC(=O)N1CC[C@H](N[C@H]2CC[C@@](O)(c3ccc(-c4ncccn4)cn3)CC2)C1)c1cccc(C(F)(F)F)c1 | % | 96 |
| Cl.Clc1ccc2nsnc2c1NC1=NCCN1 [TIZANIDINE HYDROCHLORIDE] | % | 96 |
| N#Cc1c(N)nc(SCc2csc(-c3ccc(Cl)cc3)n2)c(C#N)c1-c1ccc(OCCO)cc1 | % | 99 |
| Cc1ccc(F)cc1C(=O)Nc1ccc(C(=O)N2Cc3cccn3Cc3ccccc32)c(Cl)c1 | % | 96 |
| c1cc(OCCCN2CCCCC2)ccc1CN1CCCCC1 | % | 96 |
| CSc1ccccc1N1CCN(CCCCCC(=O)NC2CCCc3ccccc32)CC1.Cl (stereo not drawn) | % | 94 |
| CC(C)(C)c1ccc(S(=O)(=O)Nc2ccc(Cl)cc2C(=O)c2cc[n+]([O-])cc2)cc1 | % | 95 |
| CC(=O)NCCc1c(Cc2ccccc2)[nH]c2ccccc12 | % | 98 |
| O=C(O)c1cc2ccccc2c(Cc2c(O)c(C(=O)O)cc3ccccc23)c1O | % | 97 |
| CCNC1(C(N)=O)CCN(c2ncnc3c2nc(-c2ccccc2Cl)n3-c2ccc(Cl)cc2)CC1 | % | 95 |
| CCOc1c2c(c(OCC)c3ncccc13)CN(c1ccc(CS(=O)(=O)NC(=O)Cc3ccccc3OC)cc1C)C2=O | % | 95 |
| CC1(COc2ccc3c(c2)ncn3-c2ccc3cccc(N4CCC(N)CC4)c3n2)COC1 | % | 95 |

###

Test system: Fibroblast
assay.details: Multiplex assay against human fibroblast
Type: toxicity, cell-based
test.settings: 24 h, 10 µM, compound concentration 10 uM, replicate 1
Friendly reminder: Population Hoechst High Intensity Objects (%) below 3% is Y, at or above is N.

| compound | assigned.class |
| --- | --- |
| Cc1ccc(C(C)(O)c2nc3ccccc3s2)c(C)c1 (stereo unspecified) | N |
| CN1CCN(c2nc3cc(C(F)(F)F)ccc3n3cccc23)CC1.O=C(O)/C=C\C(=O)O.O=C(O)/C=C\C(=O)O | N |
| CCCN1CCC[C@@H]2Cc3n[nH]cc3C[C@H]21.Cl [QUINPIROLE HYDROCHLORIDE] | Y |
| Cl.Clc1ccc2nsnc2c1NC1=NCCN1 [TIZANIDINE HYDROCHLORIDE] | Y |
| O=C(O)Cc1ccccc1Nc1c(Cl)cccc1Cl | N |
| c1cc(OCCCN2CCCCC2)ccc1CN1CCCCC1 | Y |
| O=S(=O)(c1ccccc1)c1cnc2c(N3CCNCC3)cccc2c1 [INTEPIRDINE] | Y |
| CC(=O)NCCc1c(Cc2ccccc2)[nH]c2ccccc12 | Y |
| CC[C@H]1OC(=O)[C@H](C)[C@@H](O[C@H]2C[C@@](C)(OC)[C@@H](O)[C@H](C)O2)[C@H](C)[C@@H](O[C@@H]2O[C@H](C)C[C@H](N(C)C)[C@H]2O)[C@@]2(C)CC(C)=C(O2)[C@H](C)[C@@H](O)[C@]1(C)O | Y |
| CC(C)(C)c1ccc(S(=O)(=O)Nc2ccc(Cl)cc2C(=O)c2cc[n+]([O-])cc2)cc1 | Y |
| COc1cc(C(=O)N(CCCc2ccccc2)Cc2ccc(CC(=O)O)cc2)cc(OC)c1C | Y |
| Cc1ccccc1C(=O)Nc1ccc(C(=O)N2CCCC(N(C)C)c3ccccc32)cc1.Cl (stereo unspecified) | Y |

###

Collected Population Apoptotic (%) values appear next to each entry.
Tested on: HEK-293T
assay.details: Multiplex assay against HEK293T
Format: toxicity, cell-based
test.settings: human, 12 h, 10 µM, compound concentration 10 uM, replicate 1
outcome.measure: Population Apoptotic (%)

| molecule | outcome.measure | readout.units | endpoint.result |
| --- | --- | --- | --- |
| CNC[C@H](O)c1ccc(O)c(O)c1 [EPINEPHRINE] | Population Apoptotic (%) | % | 55 |
| CC(=O)NCCc1c(Cc2ccccc2)[nH]c2ccccc12 | Population Apoptotic (%) | % | 37 |
| CCNC1(C(N)=O)CCN(c2ncnc3c2nc(-c2ccccc2Cl)n3-c2ccc(Cl)cc2)CC1 | Population Apoptotic (%) | % | 46 |
| Cc1ccccc1C(=O)Nc1ccc(C(=O)N2CCCC(N(C)C)c3ccccc32)cc1.Cl (centres undefined) | Population Apoptotic (%) | % | 53 |
| CC1(COc2ccc3c(c2)ncn3-c2ccc3cccc(N4CCC(N)CC4)c3n2)COC1 | Population Apoptotic (%) | % | 69 |
| CN(C)c1ccnc2sc3c(=O)n(N4CCCCCC4)cnc3c12 | Population Apoptotic (%) | % | 36 |
| Cc1ccc(/C(=C\CN2CCCC2)c2ccccn2)cc1 | Population Apoptotic (%) | % | 44 |
| C[C@H]1[C@H]2CC[C@H]3[C@@H]4CC=C5C[C@@H](N(C)C)CC[C@]5(C)[C@H]4CC[C@]23CN1C | Population Apoptotic (%) | % | 35 |
| O=S(=O)(c1ccccc1)c1cnc2c(N3CCNCC3)cccc2c1 [INTEPIRDINE] | Population Apoptotic (%) | % | 51 |
| Oc1c(CN2CCN(c3ccccn3)CC2)cc(Cl)c2cccnc12 | Population Apoptotic (%) | % | 71 |
| c1cc(OCCCN2CCCCC2)ccc1CN1CCCCC1 | Population Apoptotic (%) | % | 40 |
| O=C1COc2nccc(-c3ccccc3F)c2CN1Cc1cc(C(F)(F)F)cc(C(F)(F)F)c1 | Population Apoptotic (%) | % | 38 |
| COc1c(C)cc(NC(=O)c2nn(Cc3ccc(F)cc3)c3c2CN(C(=O)c2ccc[nH]2)C[C@]3(C)C(N)=O)cc1C | Population Apoptotic (%) | % | 67 |
| CN(C)CCCc1cc(C(=O)Nc2ccc(-c3ccncc3)cc2)ccc1O.Cl.Cl | Population Apoptotic (%) | % | 31 |
| COc1cc(C(=O)N(CCCc2ccccc2)Cc2ccc(CC(=O)O)cc2)cc(OC)c1C | Population Apoptotic (%) | % | 30 |
| Cc1nc2ccc(Oc3ccc(F)cc3)cc2c(=O)n1C[C@H]1CCCN(C(C)C)C1.Cl | Population Apoptotic (%) | % | 54 |
| COc1ccc2c(c1)C(C(=O)N(Cc1ccc(N(C)C)cc1)c1ccc(C(C)C)cc1)CCC2.Cl (centres undefined) | Population Apoptotic (%) | % | 60 |
| CCCN1CCC[C@@H]2Cc3n[nH]cc3C[C@H]21.Cl [QUINPIROLE HYDROCHLORIDE] | Population Apoptotic (%) | % | 55 |
| CN1CCN2c3ncccc3Cc3ccccc3C2C1 (centres undefined) | Population Apoptotic (%) | % | 45 |

###

Test system: U2OS
assay.details: Multiplex assay against U2OS
Format: toxicity, cell-based
test.settings: human, 24 h, 10 µM, compound concentration 10 uM, replicate 2
outcome.measure: Population Mitotic Cells (%)

| compound | endpoint.result |
| --- | --- |
| CC(C)(C)c1ccc(S(=O)(=O)Nc2ccc(Cl)cc2C(=O)c2cc[n+]([O-])cc2)cc1 | 28% |
| Cc1ccccc1C(=O)Nc1ccc(C(=O)N2CCCC(N(C)C)c3ccccc32)cc1.Cl (configuration not stated) | 53% |
| CC(=O)NCCc1c(Cc2ccccc2)[nH]c2ccccc12 | 15% |
| CN(C)c1ccnc2sc3c(=O)n(N4CCCCCC4)cnc3c12 | 0% |
| CC[C@H]1OC(=O)[C@H](C)[C@@H](O[C@H]2C[C@@](C)(OC)[C@@H](O)[C@H](C)O2)[C@H](C)[C@@H](O[C@@H]2O[C@H](C)C[C@H](N(C)C)[C@H]2O)[C@@]2(C)CC(C)=C(O2)[C@H](C)[C@@H](O)[C@]1(C)O | 17% |
| Cc1nc2ccc(Oc3ccc(F)cc3)cc2c(=O)n1C[C@H]1CCCN(C(C)C)C1.Cl | 23% |
| c1cc(OCCCN2CCCCC2)ccc1CN1CCCCC1 | 15% |

Cited source: ChEMBL document CHEMBL5058577
